# System: Sup-T1
# test-name: cells
# Format: cell-based
# settings: Homo sapiens, SUP-T1, 48 h, read-out: IC50 (concentration that inhibits viability by 50%)
Provide the recorded IC50 for the entries that follow.
Report only the number, with the unit µM understood.

Exam item: What does the record list as IC50 for "Cn1c(CCCC(=O)O)nc2cc(N(CCCl)CCCl)ccc21" ?
Marked response: 8.88

Exam item: Fill blank: measured IC50 of the molecule "C/C=C1\NC(=O)[C@H]2CSSCC/C=C/[C@H](CC(=O)N[C@H](C(C)C)C(=O)N2)OC(=O)[C@H](C(C)C)NC1=O" is ____.
Marked response: 0.00094
